- System: progesterone receptor
- EXPERIMENT: Progesterone receptor assay: inhibition of [3H]R5020 binding, uterine cytosol
- Design: species or system rat
- CONDITIONS: E^−6
QUANTITY KIND: % Inhibition Progesterone Receptor E^−6
State the value, then name its unit.

Consider the worked cases shown below.
compound="CC(=O)O[C@]1(C)C(=O)CCC2C3C=C(C)C4=CC(=O)C=C[C@]4(C)C3CC[C@@]21C (stereo partly shown)" result=0%
compound="C[C@]12CCC(=O)C=C1C=C[C@@H]1[C@@H]2CC[C@]2(C)C(=O)C3(CC4CC4C3)C[C@@H]12 (stereo partly shown)" result=0%
compound="CCC[C@]1(F)CC2C3C=CC4=CC(=O)CC[C@]4(C)C3CC[C@]2(C)C1=O (stereo partly shown)" result=45%
compound="CCCC(=O)O[C@]1(C)C(=O)CCC2C3C=C(C)C4=CC(=O)CC[C@]4(C)C3CC[C@@]21C (stereo partly shown)" result=53%
compound="CCC[C@@H]1CC2C3C=CC4=CC(=O)CC[C@]4(C)C3CC[C@]2(C)C1=O (stereo partly shown)" result=0%
compound="CC12C=CC(=O)C=C1C=CC1C2CCC2(C)C(=O)C3(CCCCC3)CC12 (stereo not shown)" result=2%

For the compound CC(C)C[C@@H]1CC2C3C=CC4=CC(=O)CC[C@]4(C)C3CC[C@]2(C)C1=O (stereo partly shown) , what % Inhibition Progesterone Receptor E^−6 is on record?
0%
